ASSAY PROTOCOL: self-splicing fitness, log relative to wild type (ln ratio); higher = more splicing; Tetrahymena group I intron in knt gene, E. coli kanamycin selection, DiMSum; sequences stand for … in CUCUCU…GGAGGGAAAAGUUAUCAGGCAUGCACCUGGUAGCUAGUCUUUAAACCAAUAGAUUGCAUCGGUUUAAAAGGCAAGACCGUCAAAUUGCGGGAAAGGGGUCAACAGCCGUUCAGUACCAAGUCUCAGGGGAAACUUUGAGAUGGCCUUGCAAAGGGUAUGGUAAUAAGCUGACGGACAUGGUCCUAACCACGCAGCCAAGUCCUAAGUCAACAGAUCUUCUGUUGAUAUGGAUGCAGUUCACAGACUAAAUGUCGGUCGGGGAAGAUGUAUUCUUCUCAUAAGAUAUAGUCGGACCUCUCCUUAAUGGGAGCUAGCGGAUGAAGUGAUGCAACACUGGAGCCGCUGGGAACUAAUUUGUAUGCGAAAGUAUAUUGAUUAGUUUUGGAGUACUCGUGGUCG;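 note: selection with 25 µg/mL kanamycin versus none on LB agar overnight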
SETTINGS: 37 °C
Quick reference: self-splicing fitness (ln) of the listed items.
ASSAY ENDPOINT: self-splicing fitness (ln)

1) GCGCAGCAAUAUUACGUUCC
-0.406
2) CAGGAGCAAUAUUACGUGCA
-2.6
3) CACGAGCAAUAUUACGAAUC
-2.93
4) GCAAAGCAAUAUUACGUGAC
-1.1
5) AACAAGCAAUAUUACGAAAG
-2.73
6) CAAUAGCAAUAUUACGGCCU
-3.6
7) UUUAAGCAAUAUUACGUGCU
-1.41
8) AUCCAGCAAUAUUACGGUAC
-0.693
9) GAAGAGCAAUAUUACGGCAC
-0.934
10) AUACAGCAAUAUUACGGUAA
-0.502
11) UAUAAGCAAUAUUACGCGAU
-3.37
12) CGUCAGCAAUAUUACGCCAG
-0.48
13) GUAGAGCAAUAUUACGCGCG
-0.12
14) CUGAAGCAAUAUUACGCAGG
-1.77
15) UUCUAGCAAUAUUACGUGGG
-2.39
16) GCAAAGCAAUAUUACGGUGG
-2.43

----------
ASSAY PROTOCOL: self-splicing fitness, log relative to wild type (ln ratio); higher = more splicing; Tetrahymena group I intron in knt gene, E. coli kanamycin selection, DiMSum; sequences stand for … in CUCUCU…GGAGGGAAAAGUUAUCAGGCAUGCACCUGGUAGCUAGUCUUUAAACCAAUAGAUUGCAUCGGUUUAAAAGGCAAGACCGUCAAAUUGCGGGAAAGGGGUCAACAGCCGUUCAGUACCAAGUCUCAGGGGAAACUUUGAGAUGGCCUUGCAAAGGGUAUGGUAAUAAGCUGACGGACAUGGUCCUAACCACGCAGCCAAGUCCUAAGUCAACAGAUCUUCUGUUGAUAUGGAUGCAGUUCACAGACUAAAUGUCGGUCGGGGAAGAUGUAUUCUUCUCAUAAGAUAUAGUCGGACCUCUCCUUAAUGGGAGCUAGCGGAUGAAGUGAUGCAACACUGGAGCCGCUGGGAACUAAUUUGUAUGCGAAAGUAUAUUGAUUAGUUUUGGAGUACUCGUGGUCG
SETTINGS: 37 °C
ASSAY ENDPOINT: self-splicing fitness (ln)

1. GAAAAGCAAUAUUACGCCUG
-0.273
2. CGAAAGCAAUAUUACGACUG
-0.811
3. UACUAGCAAUAUUACGUGCG
-1.31
4. AGGCAGCAAUAUUACGAUGA
0.113
5. GACCAGCAAUAUUACGAGGU
-3.04
6. CGAAAGCAAUAUUACGCGAC
-3.26
7. AGUAAGCAAUAUUACGCUGG
-2.39
8. ACGAAGCAAUAUUACGUACC
-1.17
9. UAACAGCAAUAUUACGGUUA
-0.652
10. CCCCAGCAAUAUUACGUGUA
-2.75
11. AUACAGCAAUAUUACGUUUC
-1.49
12. AGACAGCAAUAUUACGCUCG
0.136
13. UCAAAGCAAUAUUACGCAGC
-2.72
14. GCCUAGCAAUAUUACGCUCC
0.265
15. AUAAAGCAAUAUUACGAAAC
-1.18
16. GAGCAGCAAUAUUACGGAUA
-2.11

----------
ASSAY PROTOCOL: self-splicing fitness, log relative to wild type (ln ratio); higher = more splicing; Tetrahymena group I intron in knt gene, E. coli kanamycin selection, DiMSum; sequences stand for … in CUCUCU…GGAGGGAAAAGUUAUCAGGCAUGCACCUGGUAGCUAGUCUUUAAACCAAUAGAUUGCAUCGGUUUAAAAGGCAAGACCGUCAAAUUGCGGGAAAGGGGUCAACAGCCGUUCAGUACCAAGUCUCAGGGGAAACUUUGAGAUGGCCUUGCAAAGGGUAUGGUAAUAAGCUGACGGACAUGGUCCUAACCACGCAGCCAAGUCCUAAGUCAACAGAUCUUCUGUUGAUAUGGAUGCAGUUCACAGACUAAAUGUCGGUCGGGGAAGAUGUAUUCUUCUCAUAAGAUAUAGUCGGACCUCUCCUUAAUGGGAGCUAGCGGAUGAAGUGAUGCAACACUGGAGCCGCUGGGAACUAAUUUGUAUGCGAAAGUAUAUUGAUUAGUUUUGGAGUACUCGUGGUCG
SETTINGS: 37 °C
ASSAY ENDPOINT: self-splicing fitness (ln)

1. UGGUAGCAAUAUUACGAGAC
-2.71
2. UAAGAGCAAUAUUACGUGGA
-2.14
3. CGAAAGCAAUAUUACGGAUG
-0.00232
4. CGAAAGCAAUAUUACGCGGU
-2.41
5. CCCUAGCAAUAUUACGGUUG
-2.04
6. CACAAGCAAUAUUACGGUUC
-2.66
7. CCCCAGCAAUAUUACGUUAC
-2.37
8. CGUCAGCAAUAUUACGAUAC
-1.38
9. AACGAGCAAUAUUACGACCA
-1.53
10. GAUGAGCAAUAUUACGCAAU
-2.46
11. GACCAGCAAUAUUACGAAAC
0.296
12. GUUAAGCAAUAUUACGUAUA
-1.54
13. ACCGAGCAAUAUUACGCUGA
-1.24
14. GCUAAGCAAUAUUACGUGAU
-0.96
15. UCUAAGCAAUAUUACGACUG
-0.205
16. GAGCAGCAAUAUUACGAUGG
-2.61

----------
ASSAY PROTOCOL: self-splicing fitness, log relative to wild type (ln ratio); higher = more splicing; Tetrahymena group I intron in knt gene, E. coli kanamycin selection, DiMSum; sequences stand for … in CUCUCU…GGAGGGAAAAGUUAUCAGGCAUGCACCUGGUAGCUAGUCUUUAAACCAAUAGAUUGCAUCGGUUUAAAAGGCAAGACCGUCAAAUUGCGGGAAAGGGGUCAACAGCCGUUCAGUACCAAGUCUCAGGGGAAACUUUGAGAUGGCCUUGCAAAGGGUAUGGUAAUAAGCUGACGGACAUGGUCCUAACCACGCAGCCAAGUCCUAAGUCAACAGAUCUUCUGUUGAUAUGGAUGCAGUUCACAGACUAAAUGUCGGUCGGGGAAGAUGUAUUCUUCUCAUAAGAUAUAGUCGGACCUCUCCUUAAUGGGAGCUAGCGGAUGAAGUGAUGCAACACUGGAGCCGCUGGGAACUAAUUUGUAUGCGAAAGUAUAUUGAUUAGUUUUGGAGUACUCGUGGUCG
SETTINGS: 30 °C
Label rule, in plain words: self-splicing fitness (ln) of -3 and up is YES, under -3 is NO.

1. AAUCAGCAAUAUUACGGCGU
YES
2. GGCUAGCAAUAUUACGGUGG
YES
3. GUGAAGCAAUAUUACGUACA
YES
4. UUUCAGCAAUAUUACGCGAA
YES
5. GACGAGCAAUAUUACGGUAU
NO
6. AUUGAGCAAUAUUACGAUUC
YES
7. CCUCAGCAAUAUUACGUAAG
YES
8. ACAAAGCAAUAUUACGUCUA
YES
9. GUAAAGCAAUAUUACGCUCA
YES
10. UGCAAGCAAUAUUACGCUCC
YES
11. UCUCAGCAAUAUUACGUGAC
YES
12. GUGGAGCAAUAUUACGGAUU
NO
13. UCCGAGCAAUAUUACGUCCA
YES
14. AGCGAGCAAUAUUACGCAUC
YES
15. AAUCAGCAAUAUUACGCGUU
YES
16. UCGAAGCAAUAUUACGUAAU
NO
17. AACGAGCAAUAUUACGCACU
YES
18. GUUCAGCAAUAUUACGCCCC
YES
19. ACCAAGCAAUAUUACGGUAU
NO
20. UAUUAGCAAUAUUACGACCC
NO
21. UUCCAGCAAUAUUACGCCGU
YES
22. ACUGAGCAAUAUUACGUCUC
NO
23. GGGUAGCAAUAUUACGAUUC
YES
24. CCUUAGCAAUAUUACGUCAC
NO
25. GUAGAGCAAUAUUACGCCCG
YES
26. AAAGAGCAAUAUUACGCCUU
NO
27. GAUAAGCAAUAUUACGGAGA
NO
28. CGCAAGCAAUAUUACGAAAA
YES
29. CACGAGCAAUAUUACGCUUG
NO
30. GCUUAGCAAUAUUACGCUAU
YES
